Tested on: 786-0 renal
TEST: NCI-60 one-dose screen, 48 h (100 = growth as untreated, 0 = no growth, -100 = all killed)
RUN_CONDITIONS: 10 µM unless noted
Protocol: Cells are grown in 96 well plates and exposed to the test compound for 48 hours. Compounds are tested at a single concentration, which is 10^-5 M for most compounds. The reported endpoint is percent growth (GI% or GIPRCNT), where numbers from 0 - 100% represent growth inhibition, and numbers from -100% - 0 represent cell death. For example, a value of 40 represents 60% growth inhibition. A value of 0 means no net growth occurred over the course of the experiment. […]
This is part of a sample that, as a whole, favours compounds with a hit. Of some 83,000 tested, about 20% had one in any assay. The source made the active and inactive calls. Rule for the calls: active = growth percent below 10; inactive = the rest.
READOUT: growth

| COMPOUND | READING |
| --- | --- |
| C#CCNC(=O)[C@H](Cc1ccccc1)NC(=O)[C@]12CC[C@@H](C(=C)C)[C@@H]1[C@H]1CC[C@@H]3[C@@]4(C)CCC(=O)C(C)(C)[C@@H]4CC[C@@]3(C)[C@]1(C)CC2 | 76% (inactive) |
| CN(C)c1ccc(C2C(C#N)=C(/N=C/c3ccccc3)Oc3c2ccc2ccccc32)cc1 (stereo not drawn) | 89% (inactive) |
| COc1ccc(CNCCN2C(=O)c3ccc4c5c(ccc(c35)C2=O)C(=O)N(CCNCc2ccc(OC)c(OC)c2OC)C4=O)c(OC)c1OC | 8.05% (active) |
| CC(Oc1ccc(C(=O)O)cc1C(F)(F)F)c1ccc(Oc2ccccc2)cn1 (stereo not drawn) | 99.4% (inactive) |
| CCCOC(=O)N[C@H]1CCc2cc(OC)c(OC)c(OC)c2-c2ccc(SC)c(=O)cc21 | 24.1% (inactive) |
| CCCCNC(=O)Oc1ccc(/C(=C(\C)c2ccccc2)c2ccc(OCCN3CCCCC3)cc2)cc1 | 27.1% (inactive) |
| CCCCCC(=O)Oc1ccc(/C(=C(\C)c2ccccc2)c2ccc(OCCN3CCCCC3)cc2)cc1 | 69.9% (inactive) |
| COc1ccc(/C=N/NC(=O)c2cnn3c2NC(c2ccccc2)C3)cc1OC (stereo not drawn) | 76.2% (inactive) |
